FYI, the data here is from the nanobody polyreactivity screen of Harvey et al. (2022).

Assay: yeast display, Sf9 membrane polyspecificity reagent, FACS + sequencing; frameworks hold sequencing errors
observable: polyreactivity (PSR sort gate)

Some solved entries appear below for comparison.
QVQLVESGGGLVQAGGSLRLSCSASGFTYDYYAMGWYRQAPGKERELVATISVSAVSTSYADSVKGRFTISRDNAKNTVYLQMNSLKPEDTAVYYCAASRGPYYYHYSGSLKSFDYWGQGTQVTVSS: low polyreactivity
QVQLVESRGGLVQAGGSLRLSCAASGRIFSNNAMGCYRQAPGKERELVAAITASSGSTYYADSVKGRFTISRDNAKNTVYLQMNSLKPEDTAVYYCAATLRWGFRWYFGFDYWGQGTQLTVSS: high polyreactivity
QVQLVESGGGLVQAGGSLRLSCPASGIIFKGYAMGWYRQAPGKERELVAAISQSGGSTYYADSVKGRFTISRDNAKNTVYLQMNSLKPEDTAVYYCNARYSRVVPRYYYWGQGTQVTVSS: high polyreactivity
QVQLVESGGGLVQAGGSLRLSCAASGIIFQYYVMGWYRQAPGKERELVAAIDKSGGSTYYADSVKGRFTISRDNAKNTVYLQMNSLKPEDTAVYYCAATSYAHKYYGYFGAIKYEYWGQGTQVTVSS: low polyreactivity
QVQLVESGGGLVQAGGSLRLSCAASGRIFYRNAMGWYRQAPGKERELVAAISSGGITNYADSVKGRFTISRDNAKNTVYLQMNSLKPEDTAVYYCNADAYRLPGYTFGYWGQGTQVTVSS: high polyreactivity
QVQHVESGGGLVQAGGSLRLSCAASGRNFTYYAMGWYRQAPGKERELVAAISGGGITNYADSVKGRFTISRDNAKNTVYLQMNSLKPEDTAVYYCAADQRYRRAFRSRYGSWGQGTQVTVSS: low polyreactivity

Query polyreactivity (PSR sort gate) for QVQLVESGRGLVQAGGSLRLSCAASARTFPIYAMGCYRQAPWKEREFVAAITYSGGSTYYADSVKGRFTISRDNAKNTVYLQMNSLKPEDTAVYYCAVDGTKPYWHQRYDYSGQGTQVTVSS
low polyreactivity

Query polyreactivity (PSR sort gate) for HVQLVESGGGLVQAGGSLRLSCAASGFTFDAYAMGWYRQAPGKERELVAAISFSGGSTYYADSVKGRFTISRDNAKNTVYLQMNSLKPEDTAVYYCAAYSYTRTYGRHNYWGQGTQVTVSS
high polyreactivity

Query polyreactivity (PSR sort gate) for QVQLVESGGVLVQGRGSLRLSCDASGFTYYTNDMGWYRQAPWKERELVAAINSGGSTKYADSVKGRFPISRDNAKNTVYEQMNSLKPEETAVYYCNRDDNRKHSFGSVGYDYWGQGHQVTVSS
low polyreactivity

Query polyreactivity (PSR sort gate) for QVQLVESGGGLVQAGGSLRLSCAASGNTFGYNAMGWYRQAPGKERELVASITWSGGSTYYADSVKGRFTISRDNAKNTVYLQMNSLKPEDTAVYYCNADVRYGRDHWGQGTQVTVSS
low polyreactivity

Query polyreactivity (PSR sort gate) for QVQLVESGGGLVQAGGSLRLSCAASGRTFTRNAMGWYRQAPGKERELVAAITYRAGRTYYADSVKGRFTISRDNAKNTVYLQMNSLKPEDTAVYYCNVVPGASLKEDYWGQGTQVTVSS
low polyreactivity
